target: Vitamin D3 receptor (Homo sapiens); experiment: qHTS assay to identify small molecule antagonists of the vitamin D receptor (VDR) signaling pathway (AID 743223); settings: VDR-UAS-bla HEK293T, beta-lactamase FRET ratio, 16 h; series mostly up to 61 µM
Inconclusive results are not listed. Calls of active or inactive are those of the source. Calls come from the whole dose curve; as a rule, active = well fitted inhibition curve with a large enough effect in the signal ratio in the repeat runs (not every such curve was filed as active); inconclusive = weak or mixed curves, or effect the other way; inactive = no such curve, though single readings can be large or run the other way; the % refers to the signal ratio.
Select the matching outcome among True (active), False (inactive)

Task: # lookup: test call for CCN(CC)CCSC(=O)C(c1ccccc1)c1ccccc1
Output: False

Task: # lookup: test call for CCCCCCCCCCCCCC[n+]1ccccc1
Output: True

Task: # lookup: test call for NCCCCCCNCCCCCCN
Output: False

Task: # lookup: test call for Nc1ncnc2c1ncn2[C@@H]1O[C@H](COP(=O)(O)O)[C@@H](O)[C@H]1O
Output: False

Task: # lookup: test call for CCCCCCCCCC(=O)N(C)C
Output: False

Attention now shifts to the item below.
Task: # lookup: test call for CCCC(CC)CCCCCCCN (stereo unspecified)
Output: False

====

target: Cytochrome P450 1A2 (Homo sapiens) (UniProt P05177); experiment: Cytochrome P450 Family 1 Subfamily A Member 2 (CYP1A2) small molecule antagonists: luciferase reporter qHTS assay (AID 1671199); details: P450-Glo CYP1A2 enzyme, luciferin luminescence, 1 h; series mostly up to 115 µM; note: nearly all actives have a fitted effect of over 50% in size; note: potency is the fitted concentration of half-maximal effect
Sequence (P05177 whole entry, looked up): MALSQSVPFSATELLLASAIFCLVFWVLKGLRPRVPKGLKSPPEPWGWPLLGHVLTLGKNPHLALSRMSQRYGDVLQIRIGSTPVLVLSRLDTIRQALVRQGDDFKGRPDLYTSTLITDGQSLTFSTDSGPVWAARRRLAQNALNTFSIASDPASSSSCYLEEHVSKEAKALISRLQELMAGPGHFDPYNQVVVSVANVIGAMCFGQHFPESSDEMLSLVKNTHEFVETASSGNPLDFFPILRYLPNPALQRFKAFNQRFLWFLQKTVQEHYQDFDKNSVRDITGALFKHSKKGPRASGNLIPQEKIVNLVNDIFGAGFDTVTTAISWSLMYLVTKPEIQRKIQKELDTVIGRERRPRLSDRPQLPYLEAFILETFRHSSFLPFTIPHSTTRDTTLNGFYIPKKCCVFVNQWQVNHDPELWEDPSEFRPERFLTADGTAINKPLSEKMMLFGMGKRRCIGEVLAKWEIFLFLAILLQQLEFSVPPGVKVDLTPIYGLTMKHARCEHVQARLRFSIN
Results filed as inconclusive are left out. Activity calls are given as the source filed them. Calls come from the whole dose curve; as a rule, active = well fitted inhibition curve with a large enough effect in the repeat runs; inconclusive = weak or mixed curves; inactive = no such curve, though single readings can be large or run the other way.
QUANTITY KIND: Potency

Task: Could you tell me which Potency is on file for C[n+]1c2cc(N)ccc2cc2ccc(N)cc21 (tested in a mixture with another compound) ?
Output: 2.19 µM (active)

Task: Could you tell me which Potency is on file for CNC(=O)c1cc(Oc2ccc(NC(=O)Nc3ccc(Cl)c(C(F)(F)F)c3)cc2)ccn1 ?
Output: inactive

Task: Could you tell me which Potency is on file for COC(=O)NCCC[Si](OC)(OC)OC ?
Output: inactive

Task: Could you tell me which Potency is on file for O=CC1CC1 ?
Output: inactive

Task: Could you tell me which Potency is on file for O=C1c2c(O)ccc([N+](=O)[O-])c2C(=O)c2c([N+](=O)[O-])ccc(O)c21 ?
Output: 7.03 µM (active)

Task: Could you tell me which Potency is on file for Clc1ccc(C(c2ccccc2Cl)C(Cl)Cl)cc1 (centres undefined) ?
Output: inactive

Task: Could you tell me which Potency is on file for CCCCCCC(C)Nc1ccc(Nc2ccccc2)cc1 (centres undefined) ?
Output: 22.4 µM (active)

Task: Could you tell me which Potency is on file for O=C(O)c1cccc(Cl)n1 ?
Output: inactive

Task: Could you tell me which Potency is on file for CCOC(=O)CC(C)O (centres undefined) ?
Output: inactive

Task: Could you tell me which Potency is on file for CCC(C)(C)c1cc(O)c(C(C)(C)CC)cc1O ?
Output: inactive

More entries:
Task: Could you tell me which Potency is on file for CCN(CC)c1ccc(N)cc1 ?
Output: 41 µM (active)

Task: Could you tell me which Potency is on file for O=C1NCN(c2ccccc2)C12CCN(CCCC(c1ccc(F)cc1)c1ccc(F)cc1)CC2 ?
Output: inactive

Task: Could you tell me which Potency is on file for CCCCCCCCCCCCCC[n+]1ccccc1 ?
Output: 71 µM (active)

Task: Could you tell me which Potency is on file for CC(=O)Oc1ccc(C2(c3ccc(OC(C)=O)cc3)C(=O)Nc3ccccc32)cc1 ?
Output: inactive

Task: Could you tell me which Potency is on file for NCCCCCCNCCCCCCN ?
Output: inactive

Task: Could you tell me which Potency is on file for O=S(=O)(O)CCCN1CCOCC1 ?
Output: inactive

Task: Could you tell me which Potency is on file for CCCCCCCCCCCCCCCC ?
Output: inactive

Task: Could you tell me which Potency is on file for CC[N+](CC)(CC)Cc1ccccc1 ?
Output: inactive

Task: Could you tell me which Potency is on file for CN(C)CCCN1c2ccccc2Sc2ccc(C(F)(F)F)cc21 ?
Output: 3.63 µM (active)

====

target: Nuclear receptor ROR-gamma (Homo sapiens); assay: qHTS assay to identify small molecule antagonists of the retinoid-related orphan receptor gamma (ROR-gamma) signaling pathway (AID 1159521;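 note: CHO cells with doxycycline inducible ROR-gamma driving an RORE luciferase reporter; top concentration of the series differs between compounds; % is set by controls: 0 for no effect and ±100 for the full control effect; nearly all actives have a fitted effect of over 50% in size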); details: Tet-on RORgamma CHO cells, RORE-luciferase, 16 h; series mostly up to 92.4 µM
Results filed as inconclusive are left out. Activity calls are given as the source filed them. The call rests on the fitted dose curve; in most records, active means well fitted inhibition curve with a large enough effect in the repeat runs; inconclusive means weak or mixed curves, or effect the other way; inactive means no such curve, though single readings can be large or run the other way.
# maps each entry to its activity change, negative = inhibition

The following compounds have reported results that may help.
Task: Checklist item: activity change, negative = inhibition tested on Nuclear receptor ROR-gamma (Homo sapiens), entry N[C@@H](CSSC[C@H](N)C(=O)O)C(=O)O , value?
Output: -16.9% [at 0.35 µM] (inactive)

Task: Checklist item: activity change, negative = inhibition tested on Nuclear receptor ROR-gamma (Homo sapiens), entry C=CC(=C)CC/C=C(\C)CCC=C(C)C , value?
Output: 0.326% [at 19 µM] (inactive)

More entries:
Task: Checklist item: activity change, negative = inhibition tested on Nuclear receptor ROR-gamma (Homo sapiens), entry CCC(=O)CC(C)CC (stereo unspecified) , value?
Output: 0.102% [at 0.35 µM] (inactive)

Task: Checklist item: activity change, negative = inhibition tested on Nuclear receptor ROR-gamma (Homo sapiens), entry CCN1CCN(c2cc(-c3ccc(F)cc3)c3c(n2)CCCCCC3)CC1 , value?
Output: -6.23% [at 19 µM] (inactive)

Task: Checklist item: activity change, negative = inhibition tested on Nuclear receptor ROR-gamma (Homo sapiens), entry O=S(=O)(O)c1cc(S(=O)(=O)O)c2ccc3c(S(=O)(=O)O)cc(S(=O)(=O)O)c4ccc1c2c43 , value?
Output: 12.6% [at 19 µM] (inactive)

Task: Checklist item: activity change, negative = inhibition tested on Nuclear receptor ROR-gamma (Homo sapiens), entry O=S(O)O , value?
Output: 7.25% [at 19 µM] (inactive)

====

# maps each entry to its cytotoxicity increase
assay: A CellTox Green Cytotoxicity Assay to monitor cytotoxicity in HEK293 cells - 8 hour (AID 1224884); conditions: CellTox Green fluorescence; series mostly up to 76.8 µM; note: % is set by controls: 0 for no effect and ±100 for the full control effect; nearly all actives have a fitted effect of over 35% in size
Records with an inconclusive call do not appear. Activity calls are given as the source filed them. The call rests on the fitted dose curve; in most records, active means well fitted activation curve with a large enough effect in the repeat runs; inconclusive means weak or mixed curves; inactive means flat fitted curve, though single readings scatter.

The following compounds have reported results that may help.
Task: Could you tell me which cytotoxicity increase is on file for O=S(O)O ?
Output: 0.551% [at 15.8 µM] (inactive)

Task: Could you tell me which cytotoxicity increase is on file for O=S(=O)(O)c1cc(S(=O)(=O)O)c2ccc3c(S(=O)(=O)O)cc(S(=O)(=O)O)c4ccc1c2c43 ?
Output: -7.26% [at 15.8 µM] (inactive)

More entries:
Task: Could you tell me which cytotoxicity increase is on file for C=CC(=C)CC/C=C(\C)CCC=C(C)C ?
Output: 0.0594% [at 15.8 µM] (inactive)

Task: Could you tell me which cytotoxicity increase is on file for N[C@@H](CSSC[C@H](N)C(=O)O)C(=O)O ?
Output: 26.5% [at 0.29 µM] (inactive)

Task: Could you tell me which cytotoxicity increase is on file for O=C=NCc1cccc(CN=C=O)c1 ?
Output: -1.28% [at 15.8 µM] (inactive)

Task: Could you tell me which cytotoxicity increase is on file for CCN1CCN(c2cc(-c3ccc(F)cc3)c3c(n2)CCCCCC3)CC1 ?
Output: -3.6% [at 15.8 µM] (inactive)

====

test: qHTS assay to identify small molecule antagonists of the glucocorticoid receptor (GR) signaling pathway - cell viability counter screen (AID 720693); conditions: GR-bla HeLa viability, CellTiter-Glo luminescence, 18 h, with 5 nM dexamethasone present; series mostly up to 58.5 µM; note: nearly all actives have a fitted effect of over 55% in size
Records with an inconclusive call do not appear. The source made the active and inactive calls. The call rests on the fitted dose curve; in most records, active means well fitted cell-killing curve with a large enough effect in the repeat runs; inconclusive means weak or mixed curves, or effect the other way; inactive means no such curve, though single readings can be large or run the other way.
Select the matching outcome among t = active, f = inactive

Reference set, count: 3
Task: # lookup: test call for C=CC(=O)OCCC#N
Output: f

Task: # lookup: test call for CCc1cccc(C)c1
Output: f

Task: # lookup: test call for CCCCCCCCCC(=O)N(C)C
Output: f

More entries:
Task: # lookup: test call for Cc1cc2c(C(C)C)c(O)c(O)c(C=O)c2c(O)c1-c1c(C)cc2c(C(C)C)c(O)c(O)c(C=O)c2c1O
Output: t

Task: # lookup: test call for Cc1oc(-c2ccccc2)nc1CCOc1ccc(C[C@H](Nc2ccccc2C(=O)c2ccccc2)C(=O)O)cc1
Output: t

Task: # lookup: test call for CCNc1nc(NC(C)CC)nc(OC)n1 (stereo unspecified)
Output: f

====

Assay: A CellTox Green Cytotoxicity Assay to monitor cytotoxicity in HepG2 cells - 40 hour (AID 1224879); note: nearly all actives have a fitted effect of over 40% in size
Details: CellTox Green fluorescence; series mostly up to 76.8 µM
Text: National Center for Advancing Translational Sciences [NCATS] NIH Chemical Genomics Center [NCGC] U.S. Environmental Protection Agency [EPA] National Institutes of Environmental Health Sciences [NIEHS] National Toxicology Program [NTP] Cell-based models are critical for drug discovery. […] Viable cells produce no appreciable increases in fluorescence. Therefore, the fluorescence signal produced by the binding interaction with dead cell DNA is proportional to cytotoxicity. […]
Records with an inconclusive call do not appear. The source made the active and inactive calls. The call rests on the fitted dose curve; in most records, active means well fitted activation curve with a large enough effect in the repeat runs; inconclusive means weak or mixed curves; inactive means flat fitted curve, though single readings scatter.
Select the matching outcome among true = active, false = inactive

Reference set, count: 5
Task: # lookup: test call for Cc1ccc(O)cn1
Output: false

Task: # lookup: test call for CCCCCCCC/C=C\CCCCCCCC(=O)OCCOC(=O)CCCCCCC/C=C\CCCCCCCC
Output: false

Task: # lookup: test call for [O]=[Zr]
Output: false

Task: # lookup: test call for OCCN1CN(CCO)CN(CCO)C1
Output: false

Task: # lookup: test call for O=C(c1ccccc1)c1cc(Cl)ccc1O
Output: false

More entries:
Task: # lookup: test call for CC(NCCC(c1ccccc1)c1ccccc1)c1ccccc1 (configuration not stated)
Output: true

Task: # lookup: test call for C[C@@H]1CC[C@H]2C(C)(C)[C@H]3C[C@@]12CC[C@@]3(C)O
Output: true

Numbers sourced from PubChem BioAssay (Tox21).
